ASSAY: Cytotoxicity against mouse J774A.1 cells assessed as cell viability at 0.01 to 100 uM after 20 hrs by Alamar Blue assay relative to control
Format: toxicity, J774.A1
MEASUREMENT PARAMETERS: read-out: Activity

COMPOUND | viability at 20 h, up to 100 µM
COC(=O)c1cc(O)c(O)c(O)c1 [GALLIC ACID METHYL ESTER] | ≥ 95%

====

ASSAY: Cytotoxicity against C57BL/6 mouse neutrophils assessed as cell viability at 100 uM after 2 hrs by lactate dehydrogenase assay relative to control
Assay type: toxicity, Neutrophil
MEASUREMENT PARAMETERS: read-out: Activity
EXPERIMENTAL READOUT: viability at 2 h, 100 µM

MOL SMILES | EXPERIMENTAL RESULT
COC(=O)c1cc(O)c(O)c(O)c1 | ≥ 92%
